All values here come from PubChem BioAssay (NCI).

System: MCF7 breast
Experiment: NCI-60 one-dose screen, 48 h
Conditions: 10 µM unless noted
Description: Growth inhibition of the MCF7 human tumor cell line is measured as a screen for anti-cancer activity. Cells are grown in 96 well plates and exposed to the test compound for 48 hours. Compounds are tested at a single concentration, which is 10^-5 M for most compounds. The reported endpoint is percent growth (GI% or GIPRCNT), where numbers from 0 - 100% represent growth inhibition, and numbers from -100% - 0 represent cell death. For example, a value of 40 represents 60% growth inhibition. […]
Compounds without any hit were thinned out: in the full panel of roughly 83,000, 20% have a hit. Active and inactive are the calls of the source. The calls were made as follows: active = growth percent below 10; inactive = the rest.
Outcome codes: Yes (active), No (inactive)

INSERT INTO measurements (compound, group) VALUES
  ('Cc1ccc(C(=O)N(CCCN)[C@@H](c2nc3cc(Cl)ccc3c(=O)n2Cc2ccccc2)C(C)C)cc1', 'Yes'),
  ('CN(C)C1CCN(C(=O)c2ccc(NC(=O)Nc3ccc(-c4nc(N5CCOCC5)c5cccn5n4)cc3)cc2)CC1', 'Yes'),
  ('Cc1ccc(/C=C(\C#N)c2cc3ccccc3[nH]2)cc1', 'No'),
  ('CCOc1ccccc1NC(=O)c1cc2ccccc2cc1O', 'No'),
  ('Clc1ccc(CNc2ccc3nc(CCC4CCCCC4)[nH]c3c2)cc1', 'No'),
  ('C=CCNC(=O)Cc1c(-c2ccc(OC)cc2)oc2c(OC)c3c(c(OC)c12)OCO3', 'No'),
  ('Cc1ccc2c(c1)C(C)Cc1c(ncnc1-n1cnc3cc(C)ccc31)N2C (configuration not stated)', 'No');
